- Test method notes: NCI Yeast Anticancer Drug Screen. Data for the mec2-1 strain (AID 157)
- Condition summary: S. cerevisiae mec2-1 strain, at 50.0 µM (retest, dose inferred, filed as 5.0), hits give high values
Compounds without any hit were thinned out: in the full panel of roughly 79,000, 15% have a hit.
Let's look at some compounds and their measured growth inhibition.
Answer in %, number only, no unit symbol.

Given the compound CC1(C)OC2C(O)C(O)C3OC(C)(C)OC3C2O1 (stereo not drawn) , what is its reported growth inhibition?
2

Others:
Value lookup for growth inhibition; key = CCCCCCCCCCCCCC1=NCC(c2ccc3ccccc3c2)O1 (stereo not drawn)
-2

====

- Test method notes: NCI Yeast Anticancer Drug Screen. Data for the rad50 strain (AID 155);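 also: 0% = growth of vehicle-only cultures of the same strain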
- Condition summary: S. cerevisiae rad50 strain growth inhibition; at 50.0 µM (retest, dose inferred, filed as 5.0); hits give high values
The panel holds about 79,000 compounds, 15% with a hit somewhere; the sample as a whole holds those more often.
Class met: growth inhibition at least 20%. Class not met: growth inhibition below 20%.

Could you tell me if the measured growth inhibition of O=C1OC(c2cccnc2)OC(c2ccccc2)=C1C(=O)c1ccccc1 (stereo not given) reaches 20% or more?
met

Continuing:
Is growth inhibition for `O=C(C(c1ccccc1)c1ccccc1)C(c1ccccc1)c1ccccc1` at or above 20%?
not met

Please tell me: is the compound Oc1cc2c(cc1C(c1ccc3c(c1)OCO3)N1CCN(C(c3ccc4c(c3)OCO4)c3cc4c(cc3O)OCO4)CC1)OCO2 (stereo not given) at or over 20% in terms of growth inhibition?
met

Does growth inhibition meet or surpass 20% for N#CC1(C2SCCS2=O)C2=C(C(=O)c3ccccc3C2=O)N2CCCC21 (stereo not given) ?
met

Is the recorded value of growth inhibition equal to or greater than 20% for this compound? `c1ccc2c(c1)CC1=C(O2)c2ccccc2OC1`
met

Quick check, growth inhibition >= 20%? `CC(=O)Nc1ccc(S(=O)(=O)N(CCO)CCO)cc1`
not met

====

- Test method notes: NCI Yeast Anticancer Drug Screen. Data for the cln2 rad14 strain (AID 165);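 also: 0% = growth equal to vehicle treated cultures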
- Condition summary: S. cerevisiae cln2 rad14 strain, at 50.0 µM (retest, dose inferred, filed as 5.0), hits give high values
Compounds without any hit were thinned out: in the full panel of roughly 79,000, 15% have a hit.
I would appreciate it if you labelled entries met when growth inhibition is 70% or higher, otherwise not met.

Worked set:
Identify whether the reported growth inhibition of the following compound is 70% or greater: CCN1CCC(O)(/C=C/c2ccc(C)cc2)C(C(=O)/C=C/c2ccc(C)cc2)C1 (stereo unspecified)
met

Exam item: decide whether the reported growth inhibition for `Nc1nc(N)c2c(Cl)c(CNc3ccc(Cl)c(Cl)c3)ccc2n1` is at least 70%.
met

For this compound, is measured growth inhibition 70% or higher? `Nc1cc(Cl)c(S(=O)(=O)O)cc1Cl`
met

Continuing:
Check this compound for growth inhibition at or above 70%: `CC[N+](CC)=c1ccc2nc3c(cc(N)c4ccccc43)oc-2c1`
not met

Assess whether reported growth inhibition for `CC(C)(C)CC(C)(C)c1ccc(OCCO)cc1` sits at 70% or higher.
met

====

- Test method notes: NCI Yeast Anticancer Drug Screen. Data for the cln2 rad14 strain (AID 165);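 also: 0% = growth equal to vehicle treated cultures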
- Condition summary: S. cerevisiae cln2 rad14 strain, at 50.0 µM (retest, dose inferred, filed as 5.0), hits give high values
- Method: Growth inhibition of yeast strains with defined genetic alterations is measured as a screen for potential anti-cancer activity. Selected strains with alterations in DNA damage repair or cell cycle control were exposed to compounds and growth inhibition was measured relative to vehicle treated controls. The strain used in this assay is cln2 rad14
The panel holds about 79,000 compounds, 15% with a hit somewhere; the sample as a whole holds those more often.
We begin with a simple list: items and their reported growth inhibition.
// note: answer is a bare numeric in %

# get_value(readout='growth inhibition', item= `CCN(CC)C(=S)Sc1nc2ccccc2s1` )
13

New cases:
Reported growth inhibition, molecule `C=CCOC(=O)c1ccc(C(=O)OCC=C)cc1` : ____
-26

So what does the record say about growth inhibition for `O=C1c2ccccc2-n2c1nc1ccccc1c2=O` ?
43

For O=C1OC(c2ccccc2)C(c2ccccc2)=C1c1ccccc1 (stereo not given) , what is its reported growth inhibition?
86

Any idea what its growth inhibition is? The molecule is COC(=O)C1C(O)C(C)C(O)C(C)C=C(C)C2=C3C(=C(C)C(=O)c4c(O)c(c(C)c(OC(C)=O)c43)NC(=O)C(C)=C/C=C\C(C)C(O)C(C)C1O)OCO2 (stereo not given)
10

Name the reported growth inhibition value associated with the molecule `COc1ccc2[nH]c3c(C)c4ccncc4c(C)c3c2c1`
99

Can you look up the measured growth inhibition of COc1cccc2c1C(=O)c1c(O)c3c(c(O)c1C2=O)C[C@@](O)(C(C)=O)C[C@@H]3OC1CC(O)C(O)C(C)O1 (stereo not given in full) for me?
90

Which measured growth inhibition value corresponds to `COc1cc(O)ccc1C(=S)SC` ?
29

So what's the measured growth inhibition for this one? `c1ccc([P+](CCCCCCCC[P+](c2ccccc2)(c2ccccc2)c2ccccc2)(c2ccccc2)c2ccccc2)cc1`
95

Which growth inhibition is listed for NC(CC(=O)O)C(=O)O (stereo not given) ?
-7

All figures here come from PubChem BioAssay (NCI).
